IC50 values recorded for UniProtKB P56817
Sequence (P56817 whole entry): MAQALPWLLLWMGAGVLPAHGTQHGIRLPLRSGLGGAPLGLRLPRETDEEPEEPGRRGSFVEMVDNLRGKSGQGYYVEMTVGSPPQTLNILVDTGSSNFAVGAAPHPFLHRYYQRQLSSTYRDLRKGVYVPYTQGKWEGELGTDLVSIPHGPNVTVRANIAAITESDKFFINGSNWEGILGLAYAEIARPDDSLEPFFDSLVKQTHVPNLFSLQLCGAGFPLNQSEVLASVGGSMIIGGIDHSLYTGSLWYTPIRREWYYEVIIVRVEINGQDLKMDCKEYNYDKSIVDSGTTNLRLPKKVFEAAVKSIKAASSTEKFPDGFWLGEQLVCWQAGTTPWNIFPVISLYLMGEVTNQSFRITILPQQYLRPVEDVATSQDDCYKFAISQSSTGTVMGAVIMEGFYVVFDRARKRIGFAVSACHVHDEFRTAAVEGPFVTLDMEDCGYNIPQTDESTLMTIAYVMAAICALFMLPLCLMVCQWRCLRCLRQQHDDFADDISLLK
Give just the numeric value; µM need not be written.

compound: C/C(=C\CC/C(C)=C/CCC1(C)C=Cc2cc(C(=O)O)ccc2O1)CC/C=C(\C)C(=O)O (racemic)
target-or-system: UniProtKB P56817
readout-name: IC50
endpoint-result: 11.4

IC50 for UniProtKB P56817 with input C=C(CC/C=C(\C)CC/C=C(\C)C(=O)O)C(O)CC/C(C)=C/Cc1cc(C(=O)O)ccc1O (racemic) equals 14.7

These data points were gathered from ChEMBL document CHEMBL4339241.
